Tested on: P. aeruginosa BA
METHOD NOTES: Minimum inhibitory concentration in vitro, agar dilution method
Type: cell-based
CONDITION INFO: Pseudomonas aeruginosa; P. aeruginosa BA, agar dilution; read-out: MIC
ASSAY METRIC: MIC (µg/mL)
Give the value, in units of µg/mL, as a plain number.

COMPOUND	ASSAY METRIC	QUANTITATIVE READOUT
CC(C)(O/N=C(\C(=O)N[C@@H]1C(=O)N2C(C(=O)O)=C(CSc3nc(-c4ccccc4)ncc3-c3ccc(O)c(O)c3)CS[C@H]12)c1csc(N)n1)C(=O)NO [Example 17]	MIC	2
Cc1cc(SCC2=C(C(=O)O)N3C(=O)[C@@H](NC(=O)/C(=N\OC(C)(C)C(=O)NO)c4csc(N)n4)[C@H]3SC2)n2nc(CNS(=O)(=O)c3ccc(O)c(O)c3)nc2n1 [Example 1]	MIC	0.5
CC(C)(O/N=C(\C(=O)N[C@@H]1C(=O)N2C(C(=O)O)=C(CSc3ncncc3-c3ccc(O)c(O)c3)CS[C@H]12)c1csc(N)n1)C(=O)NO [Example 19a]	MIC	1
Nc1nc(/C(=N/OCc2cc(Cl)c(O)c(O)c2Cl)C(=O)N[C@@H]2C(=O)N3C(C(=O)O)=C(CSc4nc(-c5ccccc5)ncc4-c4ccc(O)c(O)c4)CS[C@H]23)cs1 [Example 18]	MIC	1
Nc1nc(/C(=N/OCc2nc(=O)c(O)c[nH]2)C(=O)N[C@@H]2C(=O)N3C(C(=O)O)=C(CSc4nc(-c5ccccc5)ncc4-c4ccc(O)c(O)c4)CS[C@H]23)cs1 [Example 16]	MIC	4
Cc1ncc(-c2ccc(O)c(O)c2)c(SCC2=C(C(=O)O)N3C(=O)[C@@H](NC(=O)/C(=N\OC(C)(C)C(=O)NO)c4csc(N)n4)[C@H]3SC2)n1 [Example 19b]	MIC	0.5
CC(C)(O/N=C(\C(=O)N[C@@H]1C(=O)N2C(C(=O)O)=C(CS(=O)(=O)c3ccc(O)c(O)c3)CS[C@H]12)c1csc(N)n1)C(=O)NO [Example 21]	MIC	8
Nc1nc(/C(=N/OCc2ccc(O)c(O)c2F)C(=O)N[C@@H]2C(=O)N3C(C(=O)O)=C(CSc4nc(-c5ccccc5)ncc4-c4ccc(O)c(O)c4)CS[C@H]23)cs1 [Example 15]	MIC	0.5
Cc1cc(SCC2=C(C(=O)O)N3C(=O)[C@@H](NC(=O)/C(=N\OCc4ccc(O)c(O)c4F)c4csc(N)n4)[C@H]3SC2)n2nc(CNS(=O)(=O)c3ccc(O)c(O)c3)nc2n1 [Example 5]	MIC	0.12
CC(C)(O/N=C(\C(=O)N[C@@H]1C(=O)N2C(C(=O)O)=C(CSc3nnc(-c4ccc(O)c(O)c4)o3)CS[C@H]12)c1csc(N)n1)C(=O)NNC(=O)c1ccc(O)c(O)c1 [Example 45]	MIC	0.06

Nc1nc(/C(=N/OCc2nc(=O)c(O)c[nH]2)C(=O)N[C@@H]2C(=O)N3C(C(=O)O)=C(CSc4cc(-c5ccc(O)c(O)c5)nc5ccnn45)CS[C@H]23)cs1 [Example 13] yielded MIC of 2

Nc1nc(/C(=N/OCc2cc(=O)c(O)co2)C(=O)N[C@@H]2C(=O)N3C(C(=O)O)=C(CSc4cc(-c5ccc(O)c(O)c5)nc5ccnn45)CS[C@H]23)cs1 [Example 14] yielded MIC of 4

CC(C)(O/N=C(\C(=O)N[C@@H]1C(=O)N2C(C(=O)O)=C(CSc3nc(-c4ccccc4)ncc3-c3ccc(O)c(O)c3)CS[C@H]12)c1csc(N)n1)C(=O)NNC(=O)c1ccc(O)c(O)c1 [Example 46] yielded MIC of 0.5

Nc1nc(/C(=N/OCc2ccc(O)c(O)c2)C(=O)N[C@@H]2C(=O)N3C(C(=O)O)=C(CS(=O)(=O)c4ccc(O)c(O)c4)CS[C@H]23)cs1 [Example 23] yielded MIC of 32

CC(C)(O/N=C(\C(=O)N[C@@H]1C(=O)N2C(C(=O)O)=C(CS(=O)(=O)c3ccc(O)c(O)c3)CS[C@H]12)c1csc(N)n1)C(=O)NNC(=O)c1ccc(O)c(O)c1 [Example 47] yielded MIC of 4

Where these numbers come from: patent US5438052A
